target: caspase-3 (Rattus norvegicus, UniProt P55213); construct: endogenous in cells; host or cells: primary rat thymocytes (Sprague-Dawley), spontaneous apoptosis in culture; test: Caspase active site occupancy by [125I]-M808 labeling in whole rat thymocytes; format: cell-based; details: five independent experiments; p=0.03 vs DNA fragmentation IC50; read-out: IC50 determined with M808

{"smiles.record": "CCCCCN(C)CC(=O)[C@H](CC(=O)O)NC(=O)[C@H](CC)n1cc(C(C)(C)C)nc(NCc2nonc2C)c1=O", "IC50 (nM)": 130}

---

Target: caspase-3 (Rattus norvegicus, UniProt P55213)
Construct: endogenous in cells; host or cells: primary rat thymocytes (Sprague-Dawley), spontaneous apoptosis in culture
Sequence (P55213 29-175 limits assumed): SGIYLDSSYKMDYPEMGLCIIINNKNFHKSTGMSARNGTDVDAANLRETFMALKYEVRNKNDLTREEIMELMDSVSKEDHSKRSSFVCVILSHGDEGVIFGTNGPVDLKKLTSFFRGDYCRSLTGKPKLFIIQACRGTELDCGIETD
Sequence (P55213 176-277 limits assumed): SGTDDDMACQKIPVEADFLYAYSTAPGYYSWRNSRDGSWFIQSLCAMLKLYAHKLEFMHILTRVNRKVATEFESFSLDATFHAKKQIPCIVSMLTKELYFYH
Experiment: Caspase active site occupancy by [125I]-M808 labeling in whole rat thymocytes
Format: cell-based
Details: whole rat thymocytes, experiment of FIG. 5; read-out: IC50, occupancy of caspase by M867 ([125I]-M808 labeling)
pIC50: −log10 of the molar value.

{"compound": "CCCCCN(C)CC(=O)[C@H](CC(=O)O)NC(=O)[C@H](CC)n1cc(C(C)(C)C)nc(NCc2nonc2C)c1=O [Example M867]", "measurement.target": "caspase-3 (Rattus norvegicus, UniProt P55213)", "pIC50": 6.85}

---

Molecular target: purified recombinant human caspase-3 (Homo sapiens)
Construct: Active site shared between large and small caspase subunit
Sequence (P42574 29-175 limits assumed): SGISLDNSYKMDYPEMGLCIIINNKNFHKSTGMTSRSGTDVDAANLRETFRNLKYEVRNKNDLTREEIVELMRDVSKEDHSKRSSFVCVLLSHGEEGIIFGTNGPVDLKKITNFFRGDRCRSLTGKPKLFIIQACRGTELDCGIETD
Sequence (P42574 176-277 limits assumed): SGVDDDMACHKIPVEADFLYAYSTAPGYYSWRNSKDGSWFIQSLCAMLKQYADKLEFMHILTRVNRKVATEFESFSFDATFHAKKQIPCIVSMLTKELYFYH
Experiment: Caspase inhibitor titration by [125I]-M808 labeling of purified recombinant human caspase-3 (SDS-PAGE)
Type: binding
Conditions: [125I]-M808 added for 5 minutes; read-out: IC50 by [125I]-M808 labeling (50% reduction of labeled p17 subunit)

{"smiles.record": "COc1ccc(-c2nc(C)no2)cc1CC(=O)N[C@H](C(=O)N[C@@H](CC(=O)O)C(=O)CSCc1ccccc1)C(C)C", "measurement.target": "purified recombinant human caspase-3 (Homo sapiens)", "IC50 / nM": 0.45}

---

test system: rat thymocytes; test: DNA fragmentation (flow cytometry) in cultured rat thymocytes; type: cell-based; conditions: Rattus norvegicus, Thymocyte, cultured thymocytes; N. Methot et al., in press; p<0.01 vs spectrin cleavage; read-out: IC50, inhibition of DNA fragmentation

{"smiles.record": "CCCCCN(C)CC(=O)[C@H](CC(=O)O)NC(=O)[C@H](CC)n1cc(C(C)(C)C)nc(NCc2nonc2C)c1=O", "IC50 / nM": 270}
